The measurements presented in this section are drawn from patent US6653258B1.

# System: Erysiphe graminis
# measurementNotes: Foliar fungal disease test on Erysiphe graminis, plants inoculated 24 hours before treatment (Table V)
# Format: in vivo
# recordedConditions: plants inoculated 24 hours before treatment
metric: disease control grading, ERYSIPHE GRAMINIS (BARLEY)

>>> result("CO/C=C(/C(=O)OC)c1ccccc1CSc1ccccc1")
"2 (6-25% of disease on untreated plants)"
>>> result("CO/C=C(/C(=O)OC)c1ccccc1COc1cccc(C(C)(C)C)c1")
"2 (6-25% of disease on untreated plants)"
>>> result("CO/C=C(/C(=O)OC)c1ccccc1COc1cccnc1")
4
>>> result("CO/C=C(/C(=O)OC)c1ccccc1COc1cccc(Oc2cccc(C)c2)c1")
4
